Reference for the values: patent US20140205597A1

# Assay target: T1, purified interference factor(s) from serum of Donor A
# T1 construct: text names Donors 8, 19 and 30
# Protocol: Biacore, immobilized interference factor

Binder	binding vs Reference Sequence (=100%)
SEQ ID NO 87 (VHH, L11S, S112G, S113G) VHH: EVQLVESGGGSVQPGGSLRLSCAASRSIGRLDRMGWYRHRPGEPRELVATITGGSSINYGDSVKGRFTISIDNSKNTVYLQMNSLRPEDTAVYYCNFNKYVTSRDTWGQGTLVTVGG	51
SEQ ID NO 45 (VHH, mutations: P14A, P41T, S62F, S74A, S82bN, R83K, L108Q) VHH: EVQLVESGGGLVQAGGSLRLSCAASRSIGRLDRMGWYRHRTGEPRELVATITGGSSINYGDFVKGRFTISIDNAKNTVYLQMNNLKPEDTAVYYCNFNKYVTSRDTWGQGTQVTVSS	0
SEQ ID NO 77 (VHH, C-terminal: A) VHH: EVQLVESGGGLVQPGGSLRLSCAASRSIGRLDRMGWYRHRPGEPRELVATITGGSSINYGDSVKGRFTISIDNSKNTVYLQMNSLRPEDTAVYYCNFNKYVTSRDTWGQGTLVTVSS	2
